target: abl (Homo sapiens, UniProt P00519); test: abl kinase assay (ELISA or Alphascreen); format: biochemical; details: capacity to inhibit 50% of activity at 50 μM; read-out: abl inhibitory activity
Sequence (P00519 242-493 limits assumed, species assumed): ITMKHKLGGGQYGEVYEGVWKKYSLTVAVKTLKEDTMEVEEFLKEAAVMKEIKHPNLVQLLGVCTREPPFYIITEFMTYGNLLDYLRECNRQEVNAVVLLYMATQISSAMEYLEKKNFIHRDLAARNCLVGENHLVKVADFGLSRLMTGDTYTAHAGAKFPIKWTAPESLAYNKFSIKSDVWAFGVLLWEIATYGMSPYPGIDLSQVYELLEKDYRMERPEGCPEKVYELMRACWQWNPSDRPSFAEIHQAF
Exercise: for every item that follows, state its recorded inhibition at 50 µM.

query: Which measured inhibition at 50 µM belongs to "C[C@H](Nc1cncc(-n2cnc3cc(NC(=O)C4CC4)ccc32)n1)c1ccccc1" , tested on abl (Homo sapiens, UniProt P00519)?
result: > 50%

query: Item "C[C@H](Nc1cncc(-n2cnc3ccc(C(N)=O)cc32)n1)c1ccccc1" with abl (Homo sapiens, UniProt P00519) - inhibition at 50 µM?
result: > 50%

query: Please state recorded inhibition at 50 µM (tested on abl (Homo sapiens, UniProt P00519)) of "C[C@H](Nc1cncc(-n2cnc3cc(NC(=O)c4ccccc4)ccc32)n1)c1ccccc1"
result: > 50%

query: Param readout = inhibition at 50 µM; param system = abl (Homo sapiens, UniProt P00519); param query = "C[C@H](Nc1cncc(-n2cnc3cc(NS(C)(=O)=O)ccc32)n1)c1ccccc1" ; response: value
result: > 50%

query: inhibition at 50 µM of "C[C@H](Nc1cncc(-n2cnc3cc(C(=O)NCCCCN4CCOCC4)ccc32)n1)c1ccccc1" on abl (Homo sapiens, UniProt P00519)?
result: > 50%

query: Please state recorded inhibition at 50 µM (tested on abl (Homo sapiens, UniProt P00519)) of "C[C@H](Nc1cncc(-n2cnc3cc(NC(=O)C(C)(C)C)ccc32)n1)c1ccccc1"
result: > 50%

query: Fill in the recorded inhibition at 50 µM for this molecule, with abl (Homo sapiens, UniProt P00519) as test system: "C[C@H](Nc1cncc(-n2cnc3cc(C(N)=O)ccc32)n1)c1ccccc1"
result: > 50%

query: # query: inhibition at 50 µM | item "C[C@H](Nc1cncc(-n2cnc3cc(C(=O)NCCO)ccc32)n1)c1ccccc1" | system: abl (Homo sapiens, UniProt P00519)
result: > 50%

query: Find the measured inhibition at 50 µM: item "Fc1ccc(CNc2cncc(-n3cnc4ccccc43)n2)cc1" , target or system abl (Homo sapiens, UniProt P00519).
result: > 50%

query: Under abl (Homo sapiens, UniProt P00519): inhibition at 50 µM value of "C[C@H](Nc1cncc(-n2cnc3ccc(C(=O)NCCO)cc32)n1)c1ccccc1" ?
result: > 50%

* * *

I'd be grateful if you could share measured inhibition at 50 µM for these entries.
molecular target: abl (Homo sapiens, UniProt P00519); experiment: abl kinase assay (ELISA or Alphascreen); type: biochemical; details: capacity to inhibit 50% of activity at 50 μM; read-out: abl inhibitory activity

query: // map CC(Nc1cncc(-n2cnc3ccc(CN4CCN(C)CC4)cc32)n1)c1ccc(F)cc1 (stereo not shown) to recorded inhibition at 50 µM (system: abl (Homo sapiens, UniProt P00519))
result: < 50%

query: Record lookup: for abl (Homo sapiens, UniProt P00519), what inhibition at 50 µM belongs to "C[C@H](Nc1cncc(-n2cnc3cc(C4=NCCO4)ccc32)n1)c1ccccc1" ?
result: > 50%

query: Which measured inhibition at 50 µM belongs to "C[C@H](Nc1cncc(-n2cnc3ccc(C(=O)N4CCN(C)CC4)cc32)n1)c1ccccc1" , tested on abl (Homo sapiens, UniProt P00519)?
result: < 50%

query: Please tell me: inhibition at 50 µM of "Fc1ccc(CNc2cncc(-n3ccnc3)n2)cc1" , system abl (Homo sapiens, UniProt P00519)?
result: < 50%

query: Identify the measured inhibition at 50 µM of "C[C@H](Nc1cncc(-n2cnc3ccc(NC(=O)C4CC4)cc32)n1)c1ccccc1" for abl (Homo sapiens, UniProt P00519).
result: > 50%

query: Could you share what inhibition at 50 µM was measured for "C[C@H](Nc1cncc(-n2cnc3ccccc32)n1)c1ccccc1" , tested on abl (Homo sapiens, UniProt P00519)?
result: > 50%

query: Give the reported inhibition at 50 µM for "C[C@H](Nc1cncc(-n2cnc3ccc(CO)cc32)n1)c1ccccc1" (system: abl (Homo sapiens, UniProt P00519)).
result: < 50%

query: Recall the recorded inhibition at 50 µM for "COCC(=O)Nc1ccc2ncn(-c3cncc(N[C@@H](C)c4ccccc4)n3)c2c1" with abl (Homo sapiens, UniProt P00519) and state it.
result: > 50%

query: Which inhibition at 50 µM is reported with abl (Homo sapiens, UniProt P00519) for this entry: "C[C@@H](Nc1cncc(-n2cnc(-c3ccccc3)c2)n1)c1ccccc1" ?
result: > 50%

query: Param readout= inhibition at 50 µM; system= abl (Homo sapiens, UniProt P00519); entry= "C[C@H](Nc1cncc(-n2cnc3cc(NS(=O)(=O)c4ccccc4)ccc32)n1)c1ccccc1" ; returns value.
result: < 50%

* * *

target: abl (Homo sapiens, UniProt P00519); assay: abl kinase assay (ELISA or Alphascreen); assay type: biochemical; settings: capacity to inhibit 50% of activity at 50 μM; read-out: abl inhibitory activity
Would you kindly list inhibition at 50 µM for each of these compounds?

query: So what's the measured inhibition at 50 µM for this one? C[C@H](Nc1cncc(-n2cnc3cc(NC(=O)C4CCCN4)ccc32)n1)c1ccccc1 (stereo partly shown)
result: < 50%

query: Please report the recorded inhibition at 50 µM for "C[C@H](Nc1cncc(-n2cnc3ccc(NS(C)(=O)=O)cc32)n1)c1ccccc1" .
result: > 50%

query: What does the data say about its inhibition at 50 µM? Entry: "C[C@H](Nc1cncc(-n2cnc3cnccc32)n1)c1ccccc1"
result: > 50%

query: Query (compound): "Cc1cncn1-c1cncc(NCc2ccc(F)cc2)n1" ; field requested: inhibition at 50 µM
result: > 50%

query: Which inhibition at 50 µM value is on record for "CNC(=O)c1ccc2c(c1)ncn2-c1cncc(N[C@@H](C)c2ccccc2)n1" ?
result: > 50%

query: # input compound: "C[C@H](Nc1cncc(-n2cnc3cc(NCc4cccnc4)ccc32)n1)c1ccccc1" ; wanted: its inhibition at 50 µM
result: > 50%

query: Look at this compound and give its reported inhibition at 50 µM. "C[C@H](Nc1cncc(-n2cnc3cc(C(=O)Nc4ccccc4)ccc32)n1)c1ccccc1"
result: > 50%

query: Fill in the blank: the reported inhibition at 50 µM of "C[C@H](Nc1cncc(-n2cnc3cc(NC(=O)c4cccnc4)ccc32)n1)c1ccccc1" is ____.
result: > 50%

query: Param item = "c1ccc(CNc2cncc(-n3ccnc3)n2)cc1" ; retrieve measured inhibition at 50 µM.
result: > 50%

query: Please give the measured inhibition at 50 µM for this compound: CNCCN(C)Cc1ccc2ncn(-c3cncc(NC(C)c4ccc(F)cc4)n3)c2c1 (stereo not shown)
result: < 50%

* * *

target: Jak3 (Homo sapiens, UniProt P52333); construct: The kinase domain of humanJAK3 was amplified from U937mRNA; His tag (from pFastBac HTb vector) (N); made in house; host or cells: baculovirus; Sf9 insect cells for virus, High Five cells for large-scale production; assay: JAK3 kinase domain assay (ELISA or Alphascreen); assay type: biochemical; conditions: capacity to inhibit 50% of activity at 50 μM; read-out: Jak3 inhibitory activity
Sequence (P52333 822-1111 limits assumed): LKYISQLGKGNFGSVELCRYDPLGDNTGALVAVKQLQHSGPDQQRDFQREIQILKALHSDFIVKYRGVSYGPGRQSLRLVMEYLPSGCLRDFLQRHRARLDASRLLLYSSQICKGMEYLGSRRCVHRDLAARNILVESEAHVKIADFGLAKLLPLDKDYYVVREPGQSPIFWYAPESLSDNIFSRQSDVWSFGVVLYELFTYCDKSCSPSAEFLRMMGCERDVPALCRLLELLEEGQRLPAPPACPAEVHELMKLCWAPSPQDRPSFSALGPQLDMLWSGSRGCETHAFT
Kindly supply the reported inhibition at 50 µM values for the records listed here.

query: Which inhibition at 50 µM reading was recorded for the compound "Fc1ccc(CNc2cncc(-n3cnc4ccccc43)n2)cc1" ?
result: < 50%

query: Quick check: inhibition at 50 µM of "Cc1nccn1-c1cncc(N[C@H](C)c2ccccc2)n1" ?
result: < 50%

query: Could you share which inhibition at 50 µM value was measured for "C[C@H](Nc1cncc(-n2cnc3cc(NC(=O)c4cccnc4)ccc32)n1)c1ccccc1" ?
result: < 50%

query: For the compound shown here, "Cc1nc2ccccc2n1-c1cncc(N[C@@H](C)c2ccccc2)n1" , give the reported inhibition at 50 µM.
result: < 50%

query: Look up inhibition at 50 µM: "C[C@H](Nc1cncc(-n2cnc3cc(NC(=O)[C@@H]4CCCN4C(=O)OC(C)(C)C)ccc32)n1)c1ccccc1"
result: < 50%

query: Param item = "C[C@H](Nc1cncc(-n2cnc3ccc(NC(=O)C(C)(C)C)cc32)n1)c1ccccc1" ; retrieve measured inhibition at 50 µM.
result: > 50%

query: Entry "C[C@H](Nc1cncc(-n2cnc3cc(C(=O)NCCCN4CCOCC4)ccc32)n1)c1ccccc1" has what inhibition at 50 µM?
result: > 50%

query: What inhibition at 50 µM value was documented for this compound, "C[C@H](Nc1cncc(-n2cnc3cc(C(=O)NCc4ccccc4)ccc32)n1)c1ccccc1" ?
result: < 50%

query: Requested read-out: inhibition at 50 µM. Entry: CCN(CC)Cc1ccc2ncn(-c3cncc(NC(C)c4ccc(F)cc4)n3)c2c1 (centres unmarked)
result: < 50%

query: Which value of inhibition at 50 µM has been reported for CC(Nc1cncc(-n2cnc3ccccc32)n1)c1ccc(-c2ccccc2)cc1 (centres unmarked) in the records?
result: < 50%

query: Could you share which inhibition at 50 µM value was measured for "C[C@H](Nc1cncc(-n2cnc3ccc(C(N)=O)cc32)n1)c1ccccc1" ?
result: < 50%

query: So what does the record say about inhibition at 50 µM for "C[C@H](Nc1cncc(-n2cnc3cc(C(=O)NCCO)ccc32)n1)c1ccccc1" ?
result: > 50%

query: Which value of inhibition at 50 µM has been reported for "CNC(=O)c1ccc2ncn(-c3cncc(N[C@@H](C)c4ccccc4)n3)c2c1" in the records?
result: > 50%

query: Requested read-out: inhibition at 50 µM. Entry: "C[C@@H](Nc1cncc(-n2ccnc2)n1)c1ccccc1"
result: < 50%

query: May I ask what inhibition at 50 µM has been recorded for "CC(=O)Nc1ccc2ncn(-c3cncc(N[C@@H](C)c4ccccc4)n3)c2c1" ?
result: < 50%

query: # input compound: "C[C@H](Nc1cncc(-n2cnc3ccc(N)cc32)n1)c1ccccc1" ; wanted: its inhibition at 50 µM
result: < 50%

query: For CC(Nc1cncc(-n2cnc3ccccc32)n1)c1ccc(F)cc1 (centres unmarked) , what is its reported inhibition at 50 µM?
result: < 50%

query: Give its inhibition at 50 µM value. Item: "c1ccc(CNc2cncc(-n3cnc4ccccc43)n2)cc1"
result: > 50%

query: For the compound CC(Nc1cncc(-n2cnc3ccc(CN4CCN(C)CC4)cc32)n1)c1ccc(F)cc1 (centres unmarked) , what inhibition at 50 µM is on record?
result: < 50%

query: Report inhibition at 50 µM for "C[C@H](Nc1cncc(-n2cnc(-c3ccccc3)c2)n1)c1ccccc1" please.
result: > 50%

query: Need inhibition at 50 µM of "C[C@H](Nc1cncc(-n2cnc3cc(NCc4cccnc4)ccc32)n1)c1ccccc1" , thanks.
result: > 50%

query: Dear colleague, I am looking for the recorded inhibition at 50 µM of the following compound: "C[C@H](Nc1cncc(-n2cnc3cc(C4=NCCO4)ccc32)n1)c1ccccc1"
result: < 50%

query: Given the entry "C[C@H](Nc1cncc(-n2cnc3cc(C(=O)Nc4ccccc4)ccc32)n1)c1ccccc1" , report its measured inhibition at 50 µM.
result: < 50%

query: Endpoint output: inhibition at 50 µM of CC(Nc1cncc(-n2cnc3ccccc32)n1)c1cccnc1 (centres unmarked) . Value?
result: > 50%

query: Consider the compound shown here: "C[C@H](Nc1cncc(-n2cnc3ccncc32)n1)c1ccccc1" What is its recorded inhibition at 50 µM?
result: > 50%

query: Query (compound): "C[C@@H](Nc1cncc(-n2cnc3ccccc32)n1)c1ccccc1" ; field requested: inhibition at 50 µM
result: < 50%

query: Find the recorded inhibition at 50 µM belonging to "C[C@H](Nc1cncc(-n2cnc3ccc(C4=NCCO4)cc32)n1)c1ccccc1" and report it.
result: < 50%

query: What does the data say about its inhibition at 50 µM? Entry: "CC(=O)Nc1ccc2c(c1)ncn2-c1cncc(N[C@@H](C)c2ccccc2)n1"
result: < 50%

query: Item under review: "C[C@H](Nc1cncc(-n2ccnc2)n1)c1ccccc1" . Reported inhibition at 50 µM?
result: < 50%

query: Given the entry "C[C@H](Nc1cncc(-n2cnc3ccc(C(=O)NCCCN4CCOCC4)cc32)n1)c1ccccc1" , report its measured inhibition at 50 µM.
result: < 50%

query: Would you kindly share the measured inhibition at 50 µM for "C[C@H](Nc1cncc(-n2cnc3cc(NC(=O)c4ccncc4)ccc32)n1)c1ccccc1" ?
result: < 50%

query: Can you look up the measured inhibition at 50 µM of "c1ccc(CNc2cncc(-n3ccnc3)n2)cc1" for me?
result: < 50%

query: I am curious: what inhibition at 50 µM value has been reported for "Cc1ccc2c(c1)ncn2-c1cncc(N[C@@H](C)c2ccccc2)n1" ?
result: < 50%

query: Field request: inhibition at 50 µM | item: "C[C@H](Nc1cncc(-n2cnc3ccc(C(=O)N4CCOCC4)cc32)n1)c1ccccc1"
result: < 50%

query: Item under review: "C[C@H](Nc1cncc(-n2cnc3ccc(NC(=O)c4cccnc4)cc32)n1)c1ccccc1" . Reported inhibition at 50 µM?
result: < 50%

query: What inhibition at 50 µM value was documented for this compound, "COCC(=O)Nc1ccc2ncn(-c3cncc(N[C@@H](C)c4ccccc4)n3)c2c1" ?
result: < 50%

query: Could you share which inhibition at 50 µM value was measured for "C[C@H](Nc1cncc(-n2cnc3ccc(NC(=O)c4ccccc4)cc32)n1)c1ccccc1" ?
result: < 50%

query: Given "C[C@H](Nc1cncc(-n2cnc3ccccc32)n1)c1ccc(-c2cccnc2)cc1" , state its recorded inhibition at 50 µM.
result: > 50%

query: Given the entry "C[C@H](Nc1cncc(-n2cnc3cc(C(=O)N4CCN(C)CC4)ccc32)n1)c1ccccc1" , report its measured inhibition at 50 µM.
result: < 50%

query: Fill blank: measured inhibition at 50 µM of the compound C[C@H](Nc1cncc(-n2cnc3cc(NC(=O)C4CCCN4)ccc32)n1)c1ccccc1 (some centres unmarked) is ____.
result: > 50%

query: Quick one: inhibition at 50 µM for CNCCN(C)Cc1ccc2ncn(-c3cncc(NC(C)c4ccc(F)cc4)n3)c2c1 (centres unmarked) ?
result: < 50%
